We begin with a simple list: items and their reported AC50.
Assay: Luminescence Cell-Based Dose Retest to Confirm Inhibitors of Cancer Stem Cells. [Related pubchem assays (depositor defined):AID2717, AID2721]
Type: functional
Conditions: Homo sapiens
Active and inactive are the calls of the source.

The cases that follow already have their AC50 on record.
MOLECULE	AC50
Cc1ccc(/C=C/C(=O)N2CC(C)CC(C)C2)o1 (centres undefined)	22.8 µM (active)
Cc1ccc(CNc2cnn(C34CC5CC(CC(C5)C3)C4)c(=O)c2Cl)cc1	1.18 µM (active)
CCOc1ccccc1N(C(=O)Nc1ccc(Cl)cc1)C1=NCCS1	5.46 µM (active)

Query: Request the reported AC50 associated with O=c1c2ccccc2nc(COc2ccccc2)n1/N=C/c1cc([N+](=O)[O-])ccc1O
Reply: 10.2 µM (active)

* * *

Target: Small ubiquitin-related modifier 1 (Homo sapiens, UniProt P63165)
Sequence (P63165 whole entry): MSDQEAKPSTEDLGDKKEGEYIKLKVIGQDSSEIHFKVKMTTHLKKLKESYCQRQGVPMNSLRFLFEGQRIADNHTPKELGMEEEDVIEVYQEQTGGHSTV
Assay: SUMO1 protein-protein binding blockers, potency – biochemical, FRET, dose response (AID 624383)
Assay type: functional
Details: read-out: IC50_Mean
Activity calls are given as the source filed them.
Entries and their measured IC50 follow.

Solved entries (count: 3):
COMPOUND	IC50
O=C(O)c1ccccc1/C=N/NC(=O)c1cc(-c2ccco2)nc2ccccc12	9.51 µM (active)
CC(=O)c1c(C)[nH]c(C(=O)OCC(=O)c2ccc3c(c2)NC(=O)CO3)c1C	6.39 µM (active)
COc1ccc(-c2cc(=O)c3c(C)cc(O)cc3o2)cc1	8.68 µM (active)

Query: Query the reported IC50 for Small ubiquitin-related modifier 1 (Homo sapiens, UniProt P63165); item: C=C(C)C(=O)Nc1cccc(C2=NOC3(C2)C[C@H](C(N)=O)N(C(=O)COc2ccc(Cl)cc2)C3)c1 (some centres undefined)
Reply: 1.94 µM (active)

* * *

Listed next: entries and their corresponding EC50.
Biological target: Corticotropin-releasing factor receptor 2/Corticotropin-releasing factor-binding protein (Homo sapiens, UniProt P24387+Q13324)
Sequence (Q13324 whole entry): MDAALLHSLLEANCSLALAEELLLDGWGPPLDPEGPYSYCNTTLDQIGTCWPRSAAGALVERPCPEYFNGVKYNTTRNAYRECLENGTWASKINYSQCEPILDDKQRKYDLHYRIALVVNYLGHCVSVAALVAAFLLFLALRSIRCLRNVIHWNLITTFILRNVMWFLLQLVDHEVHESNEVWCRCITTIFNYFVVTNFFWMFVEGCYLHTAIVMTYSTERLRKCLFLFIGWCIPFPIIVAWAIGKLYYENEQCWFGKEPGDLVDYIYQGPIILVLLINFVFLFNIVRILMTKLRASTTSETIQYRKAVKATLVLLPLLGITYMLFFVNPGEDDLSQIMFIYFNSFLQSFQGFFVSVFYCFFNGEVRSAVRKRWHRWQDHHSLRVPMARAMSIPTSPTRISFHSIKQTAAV
Sequence (P24387 whole entry): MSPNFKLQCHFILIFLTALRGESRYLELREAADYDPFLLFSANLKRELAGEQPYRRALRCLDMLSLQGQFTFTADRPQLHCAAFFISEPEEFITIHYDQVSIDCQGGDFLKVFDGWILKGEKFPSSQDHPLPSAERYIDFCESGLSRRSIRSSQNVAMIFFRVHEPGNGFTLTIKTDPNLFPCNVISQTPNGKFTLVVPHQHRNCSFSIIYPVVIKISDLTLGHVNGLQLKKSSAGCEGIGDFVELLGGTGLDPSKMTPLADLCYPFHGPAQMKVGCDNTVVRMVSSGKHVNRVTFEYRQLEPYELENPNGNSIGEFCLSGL
Experiment: activators of CRF receptor 2 with binding protein – uHTS hits, confirmation (AID 602473)
Assay type: functional
Conditions: read-out: EC50_Mean
The source made the active and inactive calls.

These solved cases illustrate the format of a correct answer.
COMPOUND	EC50
OCC[n+]1ccc(/C=C/c2c[nH]c3ccccc23)cc1	8.55 µM (active)
Cc1ccccc1Cn1c(=O)sc2ccccc2c1=O	> 53 µM (inactive)
Cc1ccc(NC(=O)COC(=O)CCC(=O)c2cccs2)c(Br)c1	> 53 µM (inactive)
O=c1oc2c(CN3CCN(CCO)CC3)c(O)ccc2cc1-c1ccccn1	6.05 µM (active)

Query: Would you mind telling me what EC50 value was observed for CCOC(=O)Nc1ccc(Oc2ccccc2)cc1 ?
Reply: > 53 µM (inactive)

Query: Name the reported EC50 value associated with the compound Cc1[nH]c(=O)[nH]c(=O)c1S(=O)(=O)N1CCCC(C(=O)N2CCN(c3ccccc3Cl)CC2)C1 (stereo unspecified)
Reply: > 53 µM (inactive)
